Values were extracted from PubChem BioAssay (NCI).

# assayText: NCI Yeast Anticancer Drug Screen. Data for the mlh1 rad18 strain (AID 175)
# conditionsUsed: S. cerevisiae mlh1 rad18 strain growth inhibition; at 50.0 µM
# Experimental: Growth inhibition of yeast strains with defined genetic alterations is measured as a screen for potential anti-cancer activity. Selected strains with alterations in DNA damage repair or cell cycle control were exposed to compounds and growth inhibition was measured relative to vehicle treated controls. The strain used in this assay is mlh1 rad18
Compounds without any hit were thinned out: in the full panel of roughly 79,000, 15% have a hit. The source made the active and inactive calls. Cut-off read from the data, not from the text of the source: active = growth inhibition above about 70%; inactive = the rest. Where a SMILES comes first, the peptide text is derived from it. The star is where a group is joined. Boc = CC(C)(C)OC(=O)*; OcHex = C1CCC(O*)CC1
Pick one and only one: YES for active, NO for inactive

Example entries begin here.
compound="Brc1cc(Br)c2c(c1)CN(C1CCCCC1)CO2 (tested in a mixture with another compound)" classlabel=NO
compound="CC(C)CCCC(C)C1CCC2C3C(O)CC4CCCCC4(C)C3CCC12C (centres undefined)" classlabel=YES
compound=C=CCOC(=O)c1ccco1 classlabel=NO
compound="CC1(C)CC23C4COC(=O)C2CCC1C3CC4=O (centres undefined)" classlabel=NO
compound=O=C(CCCC(=O)Nc1ccc2[nH]c3ccccc3c(=O)c2c1)Nc1ccc2[nH]c3ccccc3c(=O)c2c1 classlabel=NO

Challenge: Entry CC(C)CC(NC(=O)OC(C)(C)C)C(=O)NC(CCC(=O)OC1CCCCC1)C(N)=O (stereo not drawn) (Boc-Leu-Glu(OcHex)-NH2; configuration not given here) : call = ?
Response given: NO

Challenge: Entry Cc1cc2c(=O)cc(-c3ccccc3)oc2c(C(=O)O)c1C : call = ?
Response given: NO

Challenge: Entry CC(Br)C(=O)c1ccc2ncccc2c1 (centres undefined) : call = ?
Response given: NO

Challenge: Entry CC(N)C(=O)NC(C(=O)O)C(C)C (centres undefined) : call = ?
Response given: NO

Challenge: Entry C=CCc1cc(OC)c2c(c1)C(OC)CC(c1ccc(OC)c(OC)c1)O2 (centres undefined) : call = ?
Response given: NO
